Recorded values, source the Kinase Knowledgebase extract (Sharma et al. 2016).

pIC50 values recorded for UniProt Q16539
# reply with the number alone; pIC50 is -log10 of concentration in mol/L

# record.smiles, pIC50
data = [
    ("Fc1ccc(-c2nc(Nc3ccncc3)c3ccccc3n2)cc1", 6.36),
]

Okay, now this compound:
Q: Requested field: pIC50. Item: `Cc1ccccc1-c1nc(Nc2ccncc2)c2ccccc2n1`
A: 6.46

---

Target: UniProtKB Q16539
Test: p38 alpha Inhibition
Conditions: concentration not given here
measured.quantity: inhibition (%)
Express your answer in %, writing the number without its unit.

Worked cases, answers included:
# record.smiles, target.entity, result.number
measured = [
    ("COc1ccc(Nc2nc(-c3ccccc3)nc3ccccc23)cc1", "UniProtKB Q16539", 16),
    ("Oc1cccc(Nc2nc(-c3ccccc3)nc3ccccc23)c1", "UniProtKB Q16539", 19),
    ("COc1cc2nc(-c3ccccc3Cl)nc(Nc3ccncc3)c2cc1OC", "UniProtKB Q16539", 97),
    ("c1ccc(-c2nc(Nc3ccncn3)c3ccccc3n2)cc1", "UniProtKB Q16539", 97),
    ("Cc1ccccc1-c1nc(Nc2ccncc2)c2ccccc2n1", "UniProtKB Q16539", 99),
]

Now look at this entry.
Q: Quick check: inhibition on UniProtKB Q16539, item `c1ccc(-c2nc(Nc3ncccn3)c3ccccc3n2)cc1` ?
A: 3

---

Molecular target: UniProt Q16539
Experiment: p38 alpha Inhibition
Conditions: concentration not given here
measured.quantity: inhibition (%)
Give your result in % as a bare value.

Below, each entry is followed by its recorded inhibition result.
# record.smiles, measured.quantity, result.number
measured = [
    ("O=[N+]([O-])c1ccc2nc(-c3ccccc3F)nc(Nc3ccncc3)c2c1", "inhibition", 91),
    ("Clc1ccc(-c2nc(NCc3ccncc3)c3ccccc3n2)cc1", "inhibition", 51),
    ("c1ccc(-c2nc(Nc3cccc4[nH]ccc34)c3ccccc3n2)cc1", "inhibition", 72),
    ("Clc1cccc(Cl)c1-c1nc(Nc2ccncc2)c2ccccc2n1", "inhibition", 85),
    ("c1ccc(-c2nc(NCc3cccnc3)c3ccccc3n2)cc1", "inhibition", 54),
]

Q: Tell me reported inhibition for `c1ccc(-c2nc(Nc3cccnc3)c3ccccc3n2)cc1` , tested with UniProt Q16539.
A: 45

Q: API: value(readout= inhibition, system= UniProt Q16539, query= `c1ccc(Nc2nc(-c3ccccc3)nc3ccccc23)cc1` )
A: 45

Q: Provide value of inhibition for this record tested with UniProt Q16539: `Fc1cccc(F)c1-c1nc(Nc2ccncc2)c2ccccc2n1`
A: 97

Q: For UniProt Q16539, provide inhibition of `Oc1ccccc1Nc1nc(-c2ccccc2)nc2ccccc12` please.
A: 28

Q: Give the reported inhibition for `COc1ccc(CNc2ccc3nc(-c4ccccc4F)nc(Nc4ccncc4)c3c2)cc1` (system: UniProt Q16539).
A: 96

Q: Enter reported inhibition observed with UniProt Q16539 for `CC(C)N(c1ccncc1)c1nc(-c2ccccc2)nc2ccccc12`
A: 69

---

Molecular target: MAPK14 (UniProt Q16539)
Sequence (Q16539 whole entry, looked up): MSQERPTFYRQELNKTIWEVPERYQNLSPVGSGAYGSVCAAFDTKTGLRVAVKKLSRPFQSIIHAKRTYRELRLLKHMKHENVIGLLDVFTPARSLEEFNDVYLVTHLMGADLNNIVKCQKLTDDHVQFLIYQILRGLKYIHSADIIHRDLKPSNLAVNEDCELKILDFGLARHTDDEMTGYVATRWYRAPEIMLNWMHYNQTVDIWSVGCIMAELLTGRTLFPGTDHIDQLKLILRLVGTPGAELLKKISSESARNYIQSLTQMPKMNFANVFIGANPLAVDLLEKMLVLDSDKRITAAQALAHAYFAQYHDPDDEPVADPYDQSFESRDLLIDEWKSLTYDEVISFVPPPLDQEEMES
Test: p38 alpha Inhibition
Settings: concentration not given here
Give true when the value for inhibition is at least 50%. Give false when it is less.

As a guide, the following entries are already answered.
# compound, category
data = [
    ("COc1cccc(Nc2nc(-c3ccccc3)nc3ccccc23)c1", "true"),
    ("Brc1ccccc1-c1nc(Nc2ccncc2)c2ccccc2n1", "true"),
    ("Fc1ccc(F)c(CNc2nc(-c3ccccc3)nc3ccccc23)c1", "true"),
    ("COc1ccc(N(c2ccncc2)c2nc(-c3ccccc3)nc3ccccc23)cc1", "false"),
    ("c1ccc(-c2nc(NCc3ccncc3)c3ccccc3n2)cc1", "true"),
]

Q: Check this compound for inhibition at or above 50%: `Fc1cccc(-c2nc(Nc3ccncc3)c3ccccc3n2)c1`
A: true

Q: inhibition >= 50% for `Nc1ccc2c(Nc3ccncc3)nc(-c3ccccc3F)nc2c1` ?
A: true
